Tested on: HCC-2998
Assay: NCI-60 one-dose SRB screening
Type: cell-based
Conditions: Homo sapiens, HCC-2998, Colon Cancer, 10 µM one dose, 48 h, read-out: growth percentage
Each item that follows carries a reported activity at 10 µM.

- Compound: "[O-][n+]1onc(-c2ccccc2)c1COc1ccc(Nc2ncnc3c2cnn3-c2ccccc2)cc1"
  Display unit: "%"
  activity at 10 µM: 106
- Compound: "[O-][n+]1onc(-c2ccccc2)c1CNc1ccc(Nc2nc(C(F)(F)F)nc3c2cnn3-c2ccc(Br)cc2)cc1 [12b]"
  Display unit: "%"
  activity at 10 µM: 75.1
- Compound: "Cc1nn(-c2ccc(Br)cc2)c2nc(CCl)[nH]c(=O)c12 [13c]"
  Display unit: "%"
  activity at 10 µM: 105
- Compound: "Cc1nc(Nc2ccc(OCc3c(-c4ccccc4)no[n+]3[O-])cc2)c2cnn(-c3ccccc3)c2n1"
  Display unit: "%"
  activity at 10 µM: 108
- Compound: "O=c1[nH]c(CNc2ccc(NCc3c(-c4ccccc4)no[n+]3[O-])cc2)nc2c1cnn2-c1ccccc1 [14a]"
  Display unit: "%"
  activity at 10 µM: 84.4
- Compound: "Cc1nn(-c2ccccc2)c2nc(C(F)(F)F)nc(Nc3ccc(NCc4c(-c5ccccc5)no[n+]4[O-])cc3)c12 [12a]"
  Display unit: "%"
  activity at 10 µM: 85.6
- Compound: "Cc1nn(-c2ccc(Br)cc2)c2nc(C(F)(F)F)nc(Nc3ccc(NCc4c(-c5ccccc5)no[n+]4[O-])cc3)c12 [12c]"
  Display unit: "%"
  activity at 10 µM: 96.1
- Compound: "Cc1nn(-c2ccccc2)c2nc(CCl)[nH]c(=O)c12 [13b]"
  Display unit: "%"
  activity at 10 µM: 108
- Compound: "Cc1nc(Nc2ccc(OCc3c(-c4ccccc4)no[n+]3[O-])cc2)c2c(C)nn(-c3ccccc3)c2n1"
  Display unit: "%"
  activity at 10 µM: 107
- Compound: "O=c1[nH]c(CCl)nc2c1cnn2-c1ccccc1 [13a]"
  Display unit: "%"
  activity at 10 µM: 105
- Compound: "Cc1nn(-c2ccc(Br)cc2)c2nc(CNc3ccc(NCc4c(-c5ccccc5)no[n+]4[O-])cc3)[nH]c(=O)c12 [14c]"
  Display unit: "%"
  activity at 10 µM: 112
- Compound: "Cc1nc(Nc2ccc(OCc3c(-c4ccccc4)no[n+]3[O-])cc2)c2c(C)nn(-c3ccc(Br)cc3)c2n1"
  Display unit: "%"
  activity at 10 µM: 106
- Compound: "Cc1nn(-c2ccc(Br)cc2)c2ncnc(Nc3ccc(OCc4c(-c5ccccc5)no[n+]4[O-])cc3)c12"
  Display unit: "%"
  activity at 10 µM: 104
- Compound: "Cc1nc(Nc2ccc(OCc3c(-c4ccccc4)no[n+]3[O-])cc2)c2cnn(-c3ccc(Br)cc3)c2n1"
  Display unit: "%"
  activity at 10 µM: 104
- Compound: "Cc1nn(-c2ccccc2)c2ncnc(Nc3ccc(OCc4c(-c5ccccc5)no[n+]4[O-])cc3)c12"
  Display unit: "%"
  activity at 10 µM: 106
- Compound: "Nc1ccc(NCc2c(-c3ccccc3)no[n+]2[O-])cc1"
  Display unit: "%"
  activity at 10 µM: 118
- Compound: "[O-][n+]1onc(-c2ccccc2)c1COc1ccc(Nc2ncnc3c2cnn3-c2ccc(Br)cc2)cc1"
  Display unit: "%"
  activity at 10 µM: 106
- Compound: "Cc1nn(-c2ccccc2)c2nc(CNc3ccc(NCc4c(-c5ccccc5)no[n+]4[O-])cc3)[nH]c(=O)c12 [14b]"
  Display unit: "%"
  activity at 10 µM: 111
